# Test system: Plasmodium falciparum
# procedure-text: GSK_TCMDC: Inhibition of Plasmodium falciparum Dd2 in whole red blood cells, using parasite LDH activity as an index of growth. Test compounds present at 2uM
# Type: functional
We use 40% as the dividing line for Inhibition: on or above the line is yes, below is no.

{"compound": "O=C(N[C@@H](CC1CCCCC1)C(=O)NC1CC1)c1ccc(O)c(-c2cccc(C(F)(F)F)c2)c1", "target-of-assay": "Plasmodium falciparum", "label-value": "yes"}
{"compound": "CC(C)C[C@H](Nc1ccc(C#N)c2ccccc12)C(=O)NC(C)(C)C12CC3CC(CC(C3)C1)C2.O=C(O)C(F)(F)F", "target-of-assay": "Plasmodium falciparum", "label-value": "no"}
{"compound": "CN1CCC(Oc2cc(CN3CC[C@H](NC(=O)c4ccc(Cl)c(Cl)c4)C3)ccc2I)C1.O=C(O)C(F)(F)F (stereo not given in full)", "target-of-assay": "Plasmodium falciparum", "label-value": "no"}

We next turn to a different compound, shown below.
Challenge: Tell me whether Inhibition is at least 40% here: O=C(NCCc1ccc(Cl)c(Cl)c1)[C@@H]1CCCN1C(=O)c1ccc(O)c(-c2cccc(C(F)(F)F)c2)c1
Response given: yes
